# credit: the OligoGym collection

target: PCK2; details: ASO; also: test concentration or dose not given here
These antisense oligonucleotides have a phosphorothioate backbone; sugars and methylation of C are not fully specified.
Catalogue of remaining target (mRNA or protein) (fraction of control) readings, one per entry.
I'd appreciate a reply containing only the number, no unit.

Below, 3 sequences whose answers are already recorded.
CTGCATGCAGCCTGGAAACC	0.83
GGCGGTACAATGCGGCCATG	0.81
CCCACAAACACCCCATGACG	0.35

Looking for the measured remaining target (mRNA or protein) (fraction of control) of `GGTGATGCCCAGGATCAGCA` , can you help?
0.78

Record request: remaining target (mRNA or protein) (fraction of control) value, item `GAGCATTCTCCCCAAAGCCT`
0.95

Entry under review: `GGCACTAGGGAAGGCGGCTG` . Reported remaining target (mRNA or protein) (fraction of control)?
0.84

For the sequence shown here, `AGTACACGCCACCATCACTG` , give the reported remaining target (mRNA or protein) (fraction of control).
0.91

====

target: SMAD2; details: ASO
These antisense oligonucleotides have a phosphorothioate backbone; sugars and methylation of C are not fully specified.
Label satisfied when remaining target (mRNA or protein) (fraction of control) is strictly below 0.5; at or above that, label not satisfied.

AAACTTCCCCACCTATGT	satisfied
GAGACCTGGTTTGTTCAG	satisfied
ACAGATTCCACAAGGTGC	satisfied
TGTTGGTCACTTGTTTCT	not satisfied

I'd appreciate it if you could check whether `AGATTACAGCCTGGTGGA` has remaining target (mRNA or protein) (fraction of control) smaller than 0.5.
not satisfied

Determine whether this sequence shows remaining target (mRNA or protein) (fraction of control) lower than 0.5 (ties excluded): `CTTCACCAGACTTTTCAC`
satisfied

Record `GGAAAGAGTAGTAGGAGA` : is its remaining target (mRNA or protein) (fraction of control) strictly below 0.5?
satisfied

Decide: remaining target (mRNA or protein) (fraction of control) of `GAGTGGTGATGGCTTTCT` strictly below 0.5?
satisfied

For `TATTACAGTTTTGAGTGG` , is the recorded remaining target (mRNA or protein) (fraction of control) below the cut-off of 0.5?
not satisfied

remaining target (mRNA or protein) (fraction of control) under 0.5? Item: `CAGGTTCTGAGTAAGTAA`
not satisfied

Hi there! Is remaining target (mRNA or protein) (fraction of control) for `GTTTCTCCAACCCTCTGA` below 0.5, do you know?
satisfied

Lab note: confirm whether the reported remaining target (mRNA or protein) (fraction of control) for this sequence is below 0.5, equality not counting. sequence: `GAGAGCCTGTGTCCATAC`
satisfied

====

# remaining target (mRNA or protein) (fraction of control) listing for each entry below
biological target: GNAI1; details: ASO
These antisense oligonucleotides have a phosphorothioate backbone; sugars and methylation of C are not fully specified.
I'd appreciate a reply containing only the number, no unit.

Example results:
AGCCCTAATGATAGCAAT	0.33
CCACTATCTTTCCACAAT	0.84
AACCAGGTCGTAGTCACT	0.45

Proceeding to the next sequence to report its remaining target (mRNA or protein) (fraction of control).
What is its remaining target (mRNA or protein) (fraction of control) for GNAI1? Entry: `AGTCTATCTTCAACCTCC`
0.92

====

Examples of sequences with documented remaining target (mRNA or protein) (fraction of control) follow.
molecular target: ABCC1; conditions: ASO
These antisense oligonucleotides have a phosphorothioate backbone; sugars and methylation of C are not fully specified.
I only need the number, thanks.

Solved entries (count: 5):
CGGGGCCGCAACGCCGCCTG	0.95
CTCCTCCCTGGGCGCTGGCA	0.74
CGCGCTGCTTCTGGCCCCCA	0.56
CGCATCTCTGTCTCTCCTGG	0.77
CCGGTGGCGCGGGCGGCGGC	0.69

Find the recorded remaining target (mRNA or protein) (fraction of control) belonging to `CAGGAGGTCCGATGGGGCGC` and report it.
0.95

Return reported remaining target (mRNA or protein) (fraction of control); argument: `ACCGGATGGCGGTGGCTGCT`
0.73

What value of measured remaining target (mRNA or protein) (fraction of control) is listed for `GCTCACACCAAGCCGGCGTC` ?
0.78

Please give the measured remaining target (mRNA or protein) (fraction of control) for this sequence: `AGCCCCGGAGCGCCATGCCG`
0.74

Look up remaining target (mRNA or protein) (fraction of control) for this sequence: `TCGGAGCCATCGGCGCTGCA`
0.8

Reported remaining target (mRNA or protein) (fraction of control) for `GGCACCCACACGAGGACCGT` : what is it?
0.79

Consider the sequence `TGCTGTTCGTGCCCCCGCCG` and give its measured remaining target (mRNA or protein) (fraction of control).
0.51

Need remaining target (mRNA or protein) (fraction of control), item `GGTGATCGGGCCCGGTTGCT`
0.68

remaining target (mRNA or protein) (fraction of control) for `GCGGCGATGGGCGTGGCCAG` ?
0.73

Query: remaining target (mRNA or protein) (fraction of control); subject: `AGGCCCTGCAGTTCTGACCA`
0.95

====

molecular target: MAP3K5; settings: ASO
These antisense oligonucleotides have a phosphorothioate backbone; sugars and methylation of C are not fully specified.
Binary call on remaining target (mRNA or protein) (fraction of control) with cut-off 0.3: strictly below means 1, and equality or higher means 0.

Below, 8 sequences whose answers are already recorded.
TCTGCTTTCAGTGTCCGTGA	1
AAGAAGATCAGCTCTGTATT	0
GAAGCCGGGTGAGCGGGAAG	0
CTCTGTCACCATTTTCATCA	0
CCGAATTCCCTTGACATCTC	0
AGTAAACAAATACTGGATTT	0
CTTGAGGTACCATGCTGGTG	0
GAACTATCTGATTGTCATGG	0

Check if remaining target (mRNA or protein) (fraction of control) falls below 0.3 for `CAAATTTAGAAATACTCACT` .
0

Determine if `CGTCCGCCTCCGTGCTCATC` shows remaining target (mRNA or protein) (fraction of control) strictly lower than 0.3.
1

In plain terms, does `CGCTGCCCGGCGGCGGCTCG` come in under 0.3 for remaining target (mRNA or protein) (fraction of control)?
0

Is remaining target (mRNA or protein) (fraction of control) of `TCCGTGCTCATCTCTCCGGG` strictly below 0.3?
1

I wonder whether `CACTGCTCGAGGAGGTGGCC` has remaining target (mRNA or protein) (fraction of control) below 0.3. Can you tell?
0

Problem: For the sequence `GCACGATCACATGAATGTTA` , is remaining target (mRNA or protein) (fraction of control) under 0.3?
0

Here's an entry: `TCCGCCTCCGTGCTCATCTC` . Is its remaining target (mRNA or protein) (fraction of control) below 0.3?
1

# strict comparison: is reported remaining target (mRNA or protein) (fraction of control) < 0.3? input = `CAAATTCTCTGAGGCTTGCA`
0

Is 0.3 strictly greater than the sequence's reported remaining target (mRNA or protein) (fraction of control)? sequence: `GCCGGCTGACAAGTCGGCTC`
0

Lab note: remaining target (mRNA or protein) (fraction of control) threshold 0.3. Does this sequence come in strictly under it? `ATGTTGTTGGCCATGCTGAA`
0

Determine if `AGGGTTTCCAGGGTGGCGCC` shows remaining target (mRNA or protein) (fraction of control) strictly lower than 0.3.
0

Please state whether remaining target (mRNA or protein) (fraction of control) is below 0.3 for `CAGTAACATCTGTCTTTGTG`
0

Hi there! Is remaining target (mRNA or protein) (fraction of control) for `TTCTAAAGTCTCTACCAGCT` below 0.3, do you know?
1

====

target: TNF; details: ASO
These antisense oligonucleotides have a phosphorothioate backbone; sugars and methylation of C are not fully specified.
readout-name: remaining target (mRNA or protein) (fraction of control)
Respond with the number and no other words.

Observe how each entry below is paired with its result.
CCTATTCCCTTTCCTCCCAAA	0.14
CCCTTAGGTTTCCCAGCAAGC	0.38
GGTTCCGTAAGGAAGGCTGG	0.94
TCCACTCCCCCGATCCACTCA	0.11

Which remaining target (mRNA or protein) (fraction of control) value belongs to `GTTTCCCCTCCATCTCCCTCC` ?
0.26

Which remaining target (mRNA or protein) (fraction of control) value is on record for `TTGCTGTTCTCCCTCCTGGCT` ?
0.15

====

molecular target: GNAI1; conditions: ASO
These antisense oligonucleotides have a phosphorothioate backbone; sugars and methylation of C are not fully specified.
Consider the following sequences and their measured remaining target (mRNA or protein) (fraction of control) readings.
Just the number.

# annotated cases, reported remaining target (mRNA or protein) (fraction of control) shown
TGTGTCCTTTCTTTTATT	0.63
GTATAATGGATGTATCTG	0.86

Data request, read-out remaining target (mRNA or protein) (fraction of control), for `TTCAACCTCCCCATAGCC`
0.81

Any idea what remaining target (mRNA or protein) (fraction of control) was measured for `CAAAGCCATCACCCTAAA` ?
0.43

Which remaining target (mRNA or protein) (fraction of control) reading was recorded for the sequence `CCTTCTGTTACTTTCAGT` ?
0.75

Which remaining target (mRNA or protein) (fraction of control) value belongs to `TTCTGTCCAAGTCATTCA` ?
0.64

For the sequence `AGAACAACTTTGGTCAAG` , what remaining target (mRNA or protein) (fraction of control) is on record?
0.88

Give its remaining target (mRNA or protein) (fraction of control) value. Item: `CTTTTACCAGATTCACCA`
0.96

// remaining target (mRNA or protein) (fraction of control) lookup, key: `TTTCCACAATCTCTTTAT`
0.92

Report remaining target (mRNA or protein) (fraction of control) for `TCATCTTACTCCGCTCCA` please.
0.66

// query remaining target (mRNA or protein) (fraction of control) value for entry `CACATTCTTAGTATCTGT`
0.85

Any idea what its remaining target (mRNA or protein) (fraction of control) is? The sequence is `AATCCTAAGTTGCCACTC`
0.4

May I ask what remaining target (mRNA or protein) (fraction of control) has been recorded for `CTCCTCTTCTGAATAACC` ?
0.79

Sample `ATTTCCTTTGTGTCCTTT` — what was its remaining target (mRNA or protein) (fraction of control)?
0.41

Need remaining target (mRNA or protein) (fraction of control) of `GCATTCGGTTCATTTCTT` , thanks.
0.58
